FYI, the data here is from patent US20240252677A1.

Experimental Protocol: Cryo-TEM of dendrimersomes from glycerol-JDs, number of vesicle layers
Type: physicochemical
Run Parameters: vesicles with 6 layers
Attribute Measured: Number of vesicle layers: 6 (count of vesicles)

Input: Recorded Number of vesicle layers: 6 (count of vesicles) of CCCCCCCCCCCCOc1cc(OCCCCCCCCCCCC)cc(C(=O)OCC(C)(COC(=O)c2cc(OCCCCCCCCCCCC)cc(OCCCCCCCCCCCC)c2)C(=O)OC[C@H](COC(=O)c2cc(OCCOCCOCCOC)c(OCCOCCOCCOC)c(OCCOCCOCCOC)c2)OC(=O)c2cc(OCCOCCOCCOC)c(OCCOCCOCCOC)c(OCCOCCOCCOC)c2)c1 [Compound 2S, (3,5)-12G1-BMPA-GC-(S)-(3,4,5)-3EO-G1] , please.
Output: 0

Input: Find the recorded Number of vesicle layers: 6 (count of vesicles) belonging to CCCCCCCCCCCCOc1cc(OCCCCCCCCCCCC)cc(C(=O)OCC(COC(=O)C(C)(COC(=O)c2cc(OCCOCCOCCOC)c(OCCOCCOCCOC)c(OCCOCCOCCOC)c2)COC(=O)c2cc(OCCOCCOCCOC)c(OCCOCCOCCOC)c(OCCOCCOCCOC)c2)OC(=O)c2cc(OCCCCCCCCCCCC)cc(OCCCCCCCCCCCC)c2)c1 (racemic) [Compound 1rac, (3,5)-12G1-GC-(rac)-BMPA-(3,4,5)-3EO-G1] and report it.
Output: 3

Input: What value of Number of vesicle layers: 6 (count of vesicles) has been reported for the following molecule? CCCCCCCCCCCCOc1cc(OCCCCCCCCCCCC)cc(C(=O)OC[C@@H](COC(=O)C(C)(COC(=O)c2cc(OCCOCCOCCOC)c(OCCOCCOCCOC)c(OCCOCCOCCOC)c2)COC(=O)c2cc(OCCOCCOCCOC)c(OCCOCCOCCOC)c(OCCOCCOCCOC)c2)OC(=O)c2cc(OCCCCCCCCCCCC)cc(OCCCCCCCCCCCC)c2)c1 [Compound 1S, (3,5)-12G1-GC-(S)-BMPA-(3,4,5)-3EO-G1]
Output: 0

* * *

Experimental Protocol: Dimensions (size, PDI) of DNPs co-assembled from IAJDs and Luc-mRNA by DLS
Type: physicochemical
Run Parameters: Table 16; DNPs from IAJD 4 mg/mL and Luc-mRNA 0.10 mg/mL by injection in acetate buffer (10 mM, pH 4.0)
// boundary case: PDI equal to 0.3 maps to no; strictly smaller maps to yes

Input: Strictly below 0.3 in PDI? CCCCCCCCCCCCCCCOc1cc(COC(=O)CCCN2CCN(CCO)CC2)cc(OCCCCCCCCCCCCCC)c1
Output: no

Input: Determine if CCCCCCCCCCCOc1cc(COC(=O)CCCN2CCN(C)CC2)cc(OCCCCCCCCCC)c1 shows PDI strictly lower than 0.3.
Output: no

Input: Please determine if CCCCCCCCCCCCCCCCCCOc1cc(COC(=O)CCCN2CCN(CCO)CC2)cc(OCCCCCCCCCCCCC)c1 is below 0.3 in terms of PDI.
Output: yes

Input: Given CCCCCCCCCCCOc1cc(COC(=O)CCCN2CCN(CCO)CC2)cc(OCC(CC)CCCC)c1 (centres unmarked) , is recorded PDI strictly lower than 0.3?
Output: yes

Input: Determine if CCCCCCCCCCCOc1cc(COC(=O)CCCN2CCN(CCO)CC2)cc(OCCCCCCCCCC)c1 shows PDI strictly lower than 0.3.
Output: no

Input: Lab note: confirm whether the reported PDI for this compound is below 0.3, equality not counting. compound: CCCCCCCCCCCOc1cc(COC(=O)CCCN2CCN(CCO)CC2)cc(OCCCCCCCCC)c1
Output: no

Input: Lab note: PDI threshold 0.3. Does this compound come in strictly under it? CCCCCCCCCCCCCCCOc1cc(COC(=O)c2cc(OCCOCCOCCCC(=O)CCCN3CCCCC3)c(OCCOCCOCCOCc3ccccc3)c(OCCOCCOCCOC(=O)CCCN3CCCCC3)c2)cc(OCCCCCCCCCCC)c1
Output: yes

Input: Confirm or reject: PDI of CCCCCCCCCCCCCOc1cc(COC(=O)CCCN2CCN(C)CC2)cc(OCCCCCCCCCCC)c1 lies strictly below 0.3
Output: yes

Input: Please determine if CCCCCCCCCCCCCCCCCOc1cc(COC(=O)CCCN2CCN(CCO)CC2)cc(OCCCCCCCCCCCCCCC)c1 is below 0.3 in terms of PDI.
Output: no

Input: For this compound, is PDI lower than 0.3? CCCCCCCCCCCCCCCCCOc1cc(COC(=O)CCCN2CCN(C)CC2)cc(OCCCCCCCCCCCCCCC)c1
Output: yes

Input: Criterion: PDI strictly below 0.3. Is it met by CCCCCCCCCCCCOc1cc(COC(=O)c2cc(OCCOCCOCCCC(=O)CCCN3CCCCC3)c(OCCOCCOCCOCc3ccccc3)c(OCCOCCOCCOC(=O)CCCN3CCCCC3)c2)cc(OCCCCCCCCCCCC)c1 ?
Output: yes

Input: Does CCCCCCCCCCCCCCCOc1cc(COC(=O)CCCN2CCN(CCO)CC2)cc(OCCCCCCCCCCCCC)c1 have PDI strictly under 0.3?
Output: yes

* * *

Please respond with reported Number of vesicle layers: 1 (count of vesicles) for every item in the list.
Experimental Protocol: Cryo-TEM of dendrimersomes from glycerol-JDs, number of vesicle layers
Format: physicochemical
Run Parameters: vesicles with 1 layer
Give a plain numeric answer without units written out.

Input: May I ask what Number of vesicle layers: 1 (count of vesicles) has been recorded for CCCCCCCCCCCCOc1cc(OCCCCCCCCCCCC)cc(C(=O)OCC(COC(=O)C(C)(COC(=O)c2cc(OCCOCCOCCOC)c(OCCOCCOCCOC)c(OCCOCCOCCOC)c2)COC(=O)c2cc(OCCOCCOCCOC)c(OCCOCCOCCOC)c(OCCOCCOCCOC)c2)OC(=O)c2cc(OCCCCCCCCCCCC)cc(OCCCCCCCCCCCC)c2)c1 (racemic) [Compound 1rac, (3,5)-12G1-GC-(rac)-BMPA-(3,4,5)-3EO-G1] ?
Output: 7

Input: Report Number of vesicle layers: 1 (count of vesicles) for CCCCCCCCCCCCOc1cc(OCCCCCCCCCCCC)cc(C(=O)OC[C@@H](COC(=O)C(C)(COC(=O)c2cc(OCCOCCOCCOC)c(OCCOCCOCCOC)c(OCCOCCOCCOC)c2)COC(=O)c2cc(OCCOCCOCCOC)c(OCCOCCOCCOC)c(OCCOCCOCCOC)c2)OC(=O)c2cc(OCCCCCCCCCCCC)cc(OCCCCCCCCCCCC)c2)c1 [Compound 1S, (3,5)-12G1-GC-(S)-BMPA-(3,4,5)-3EO-G1] please.
Output: 23

Input: Bench note: what Number of vesicle layers: 1 (count of vesicles) did CCCCCCCCCCCCOc1cc(OCCCCCCCCCCCC)cc(C(=O)OCC(C)(COC(=O)c2cc(OCCCCCCCCCCCC)cc(OCCCCCCCCCCCC)c2)C(=O)OC[C@@H](COC(=O)c2cc(OCCOCCOCCOC)c(OCCOCCOCCOC)c(OCCOCCOCCOC)c2)OC(=O)c2cc(OCCOCCOCCOC)c(OCCOCCOCCOC)c(OCCOCCOCCOC)c2)c1 [Compound 2R, (3,5)-12G1-BMPA-GC-(R)-(3,4,5)-3EO-G1] show?
Output: 202

Input: Requested field: Number of vesicle layers: 1 (count of vesicles). Item: CCCCCCCCCCCCOc1cc(OCCCCCCCCCCCC)cc(C(=O)OC[C@H](COC(=O)C(C)(COC(=O)c2cc(OCCOCCOCCOC)c(OCCOCCOCCOC)c(OCCOCCOCCOC)c2)COC(=O)c2cc(OCCOCCOCCOC)c(OCCOCCOCCOC)c(OCCOCCOCCOC)c2)OC(=O)c2cc(OCCCCCCCCCCCC)cc(OCCCCCCCCCCCC)c2)c1 [Compound 1R, (3,5)-12G1-GC-(R)-BMPA-(3,4,5)-3EO-G1]
Output: 61

* * *

I'd appreciate it if you could supply Number of vesicle layers: 2 (count of vesicles) values for the items below.
Experimental Protocol: Cryo-TEM of dendrimersomes from glycerol-JDs, number of vesicle layers
Assay type: physicochemical
Run Parameters: vesicles with 2 layers
The answer should be written as a number, with no unit following it.

Input: Need Number of vesicle layers: 2 (count of vesicles) of CCCCCCCCCCCCOc1cc(OCCCCCCCCCCCC)cc(C(=O)OC[C@H](COC(=O)C(C)(COC(=O)c2cc(OCCOCCOCCOC)c(OCCOCCOCCOC)c(OCCOCCOCCOC)c2)COC(=O)c2cc(OCCOCCOCCOC)c(OCCOCCOCCOC)c(OCCOCCOCCOC)c2)OC(=O)c2cc(OCCCCCCCCCCCC)cc(OCCCCCCCCCCCC)c2)c1 [Compound 1R, (3,5)-12G1-GC-(R)-BMPA-(3,4,5)-3EO-G1] , thanks.
Output: 15

Input: Record request: Number of vesicle layers: 2 (count of vesicles) value, item CCCCCCCCCCCCOc1cc(OCCCCCCCCCCCC)cc(C(=O)OCC(C)(COC(=O)c2cc(OCCCCCCCCCCCC)cc(OCCCCCCCCCCCC)c2)C(=O)OC[C@@H](COC(=O)c2cc(OCCOCCOCCOC)c(OCCOCCOCCOC)c(OCCOCCOCCOC)c2)OC(=O)c2cc(OCCOCCOCCOC)c(OCCOCCOCCOC)c(OCCOCCOCCOC)c2)c1 [Compound 2R, (3,5)-12G1-BMPA-GC-(R)-(3,4,5)-3EO-G1]
Output: 2

Input: Number of vesicle layers: 2 (count of vesicles) lookup needed for CCCCCCCCCCCCOc1cc(OCCCCCCCCCCCC)cc(C(=O)OC[C@@H](COC(=O)C(C)(COC(=O)c2cc(OCCOCCOCCOC)c(OCCOCCOCCOC)c(OCCOCCOCCOC)c2)COC(=O)c2cc(OCCOCCOCCOC)c(OCCOCCOCCOC)c(OCCOCCOCCOC)c2)OC(=O)c2cc(OCCCCCCCCCCCC)cc(OCCCCCCCCCCCC)c2)c1 [Compound 1S, (3,5)-12G1-GC-(S)-BMPA-(3,4,5)-3EO-G1] , thanks.
Output: 9

Input: Endpoint output: Number of vesicle layers: 2 (count of vesicles) of CCCCCCCCCCCCOc1cc(OCCCCCCCCCCCC)cc(C(=O)OCC(COC(=O)C(C)(COC(=O)c2cc(OCCOCCOCCOC)c(OCCOCCOCCOC)c(OCCOCCOCCOC)c2)COC(=O)c2cc(OCCOCCOCCOC)c(OCCOCCOCCOC)c(OCCOCCOCCOC)c2)OC(=O)c2cc(OCCCCCCCCCCCC)cc(OCCCCCCCCCCCC)c2)c1 (racemic) [Compound 1rac, (3,5)-12G1-GC-(rac)-BMPA-(3,4,5)-3EO-G1] . Value?
Output: 6

Input: Can you share its Number of vesicle layers: 2 (count of vesicles)? I mean this compound: CCCCCCCCCCCCOc1cc(OCCCCCCCCCCCC)cc(C(=O)OCC(C)(COC(=O)c2cc(OCCCCCCCCCCCC)cc(OCCCCCCCCCCCC)c2)C(=O)OC[C@H](COC(=O)c2cc(OCCOCCOCCOC)c(OCCOCCOCCOC)c(OCCOCCOCCOC)c2)OC(=O)c2cc(OCCOCCOCCOC)c(OCCOCCOCCOC)c(OCCOCCOCCOC)c2)c1 [Compound 2S, (3,5)-12G1-BMPA-GC-(S)-(3,4,5)-3EO-G1]
Output: 13
